Tested on: HCT-116 colon cancer cells
testProtocol: MTT cell survival assay, HCT-116
Format: cell-based
studyConditions: Homo sapiens, HCT-116, read-out: IC50 ± SD, HCT-116
measuredMetric: IC50 (nM)

[[record]]
itemsmiles = "Cc1cc(Cl)n2nc3nc4ccccc4cc3c2n1"
measuredmetric = "IC50"
resultnumber = 634


---

Tested on: nine human cancer cell lines and three non-cancerous cell lines; additional colon cancer cells
testProtocol: MTT cell survival assay, statements over several cell lines
Format: cell-based
studyConditions: Homo sapiens, DU-145, read-out: IC50 values against prostate cancer cells
pIC50: −log10 of the molar value.
measuredMetric: pIC50

[[record]]
itemsmiles = "Cc1cc(Cl)n2nc3nc4ccccc4cc3c2n1"
measuredmetric = "pIC50"
result = "5.92 to 6.10"

